Assembled from different publications: IC50 for UniProt:P00523.
experimental_endpoint: IC50 (nM)

# annotated cases, reported IC50 shown
>>> print(df.to_string())
                               smiles_input  observed
0  Cn1c(=O)c(-c2c(Cl)cccc2Cl)cc2cnc(NCc3cccnc3)nc21      3200
1  CCN(CC)CCCCNc1ncc2cc(-c3c(Cl)cccc3Cl)c(NC(=O)Nc3ccccc3)nc2n1       7.5
2  CCn1c(=O)c(-c2c(Cl)cccc2Cl)cc2cnc(Nc3ccncc3)nc21        12
3  CC[N+](C)(CC)CCOc1ccc(Nc2ncc3cc(-c4c(Cl)cccc4Cl)c(=O)n(C)c3n2)cc1        11

a = CC[N+]([O-])(CC)CCOc1ccc(Nc2ncc3cc(-c4c(Cl)cccc4Cl)c(=O)n(C)c3n2)cc1
b = COc1cc(OC)cc(-c2cc3cnc(NCCCCCN4CCN(C)CC4)cc3nc2NC(=O)NC(C)(C)C)c1
## Task // pick larger IC50 from pair: a vs b Pick one; state its label.
## Result b
